Tgt: PCSK9 (Homo sapiens, UniProt Q8NBP7)
Construct: Biotinylated PCSK9 was obtained commercially; purchased
Sequence (Q8NBP7 153-692): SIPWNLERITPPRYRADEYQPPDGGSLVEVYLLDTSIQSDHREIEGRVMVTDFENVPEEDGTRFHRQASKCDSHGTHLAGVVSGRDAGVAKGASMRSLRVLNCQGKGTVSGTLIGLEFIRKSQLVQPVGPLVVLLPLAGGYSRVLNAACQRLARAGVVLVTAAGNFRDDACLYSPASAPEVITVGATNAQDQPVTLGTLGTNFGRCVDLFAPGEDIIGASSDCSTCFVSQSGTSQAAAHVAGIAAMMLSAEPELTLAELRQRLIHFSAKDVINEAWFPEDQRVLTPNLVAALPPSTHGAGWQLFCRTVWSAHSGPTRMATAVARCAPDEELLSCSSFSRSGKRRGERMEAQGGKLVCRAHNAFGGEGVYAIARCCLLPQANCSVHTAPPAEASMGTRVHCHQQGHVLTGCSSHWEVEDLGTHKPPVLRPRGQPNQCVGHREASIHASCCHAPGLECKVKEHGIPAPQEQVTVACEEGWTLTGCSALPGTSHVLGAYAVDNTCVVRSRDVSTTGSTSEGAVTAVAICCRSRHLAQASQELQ
Protocol Text: PCSK9 Alexa FRET Plus TR-FRET assay (displacement of AlexaFluor647 tagged cyclic peptide Reagent B)
Assay type: binding
Experimental Context: 0.5 nM biotinylated PCSK9, 960 nM AF cyclic peptide Reagent B; Ki calculated from IC50 and KD of AF peptide; read-out: Ki Plus
Recorded Endpoint: pKi
Scale: pKi equals -log10([C]), with [C] in mol/L.

Completed entries (count: 2):
Molecule: COc1ccc(C[C@@H]2NC(=O)[C@H]([C@@H](C)O)NC(=O)[C@@H]3[C@@H]4CCN3C(=O)[C@@H]3Cc5cn(c6ccc(F)cc56)CCCCN(Cc5ccc(cc5)CCNC(=O)[C@]5(C)CCCN5C2=O)C(=O)CCC(=O)N[C@@H](C)C(=O)N[C@H](CNC(=O)CCC(=O)NC2OC(CO)C(O)C(O)C2O)C(=O)N[C@@H](Cc2cccc(c2)CNC(=O)CO4)C(=O)N3)cc1 (stereo partly drawn) [Ex-27]
pKi: 11.25
--
Molecule: COc1ccc(C[C@@H]2NC(=O)[C@H]([C@@H](C)O)NC(=O)[C@@H]3[C@@H]4CCN3C(=O)[C@@H]3Cc5cn(c6ccc(F)cc56)C/C=C/CCCN(Cc5ccc(cc5)CCNC(=O)[C@]5(C)CCCN5C2=O)C(=O)CCC(=O)N[C@H]2CN(C(=O)CCOCCOCC[N+](C)(C)C)CCCCC(=O)NC[C@@H](NC2=O)C(=O)N[C@@H](Cc2cccc(c2)CNC(=O)CO4)C(=O)N3)cc1 [Ex-07]
pKi: 10.23

Attention now shifts to the item below.
# returns recorded pKi (system: PCSK9 (Homo sapiens, UniProt Q8NBP7)) for COc1ccc(C[C@@H]2NC(=O)[C@H]([C@@H](C)O)NC(=O)[C@@H]3[C@@H]4CCN3C(=O)[C@@H]3Cc5cn(c6ccc(F)cc56)CCCCCCN(Cc5ccc(cc5)CCNC(=O)[C@]5(C)CCCN5C2=O)C(=O)CCC(=O)N[C@H]2CN(C(=O)CCOCCOCC[N+](C)(C)C)CCCCC(=O)NC[C@@H](NC2=O)C(=O)N[C@@H](Cc2cccc(c2)CNC(=O)CO4)C(=O)N3)cc1 [Ex-19]
10.78

###

Tgt: PCSK9 (Homo sapiens)
Construct: Biotinylated PCSK9 was obtained commercially; purchased
Protocol Text: PCSK9 Alexa FRET Ultra TR-FRET assay (displacement of AlexaFluor647 tagged cyclic peptide)
Type: binding
Experimental Context: 0.5 nM biotinylated PCSK9, 960 nM AF cyclic peptide; Ki calculated from IC50 and KD of AF peptide; read-out: Ki Ultra
Recorded Endpoint: Ki (pM)
Form entry: value (pM) — number only.

Completed entries (count: 2):
Compound: COc1ccc(C[C@@H]2NC(=O)[C@H]([C@@H](C)O)NC(=O)[C@@H]3C4CCN3C(=O)[C@@H]3Cc5cn(c6ccc(F)cc56)CCCCN(Cc5ccc(cc5)CCNC(=O)[C@]5(C)CCCN5C2=O)C(=O)CCCCCC(=O)N[C@H](CNC(=O)CCC(=O)NC2OC(CO)C(O)C(O)C2O)C(=O)N[C@@H](Cc2cccc(c2)CNC(=O)CO4)C(=O)N3)cc1 (stereo partly drawn)
Measured Value: 2.75
//
Compound: COc1ccc(C[C@@H]2NC(=O)[C@H]([C@@H](C)O)NC(=O)[C@@H]3[C@@H]4CCN3C(=O)[C@@H]3Cc5cn(c6ccc(F)cc56)Cc5cn(nn5)Cc5cc(ccc5CNC(=O)CCC(=O)N[C@@H](C)C(=O)N[C@H](CNC(=O)CCOCCOCC[N+](C)(C)C)C(=O)N[C@@H](Cc5cccc(c5)CNC(=O)CO4)C(=O)N3)CCNC(=O)[C@]3(C)CCCN3C2=O)cc1
Measured Value: 68.3

# returns recorded Ki (system: PCSK9 (Homo sapiens)) for COc1ccc(C[C@@H]2NC(=O)[C@H]([C@@H](C)O)NC(=O)[C@@H]3[C@@H]4CCN3C(=O)[C@@H]3Cc5cn(c6ccc(F)cc56)CCCCCCN(Cc5ccc(cc5)CCNC(=O)[C@]5(C)CCCN5C2=O)C(=O)CCC(=O)N[C@@H](C)C(=O)N[C@H](CNC(=O)CCC(=O)NC2OC(CO)C(O)C(O)C2O)C(=O)N[C@@H](Cc2cccc(c2)CNC(=O)CO4)C(=O)N3)cc1 (stereo partly drawn)
2.39

###

Tgt: PCSK9 (Homo sapiens)
Construct: Biotinylated PCSK9 was obtained commercially; purchased
Protocol Text: PCSK9 Alexa FRET Plus TR-FRET assay (displacement of AlexaFluor647 tagged cyclic peptide Reagent B)
Type: binding
Experimental Context: Ki Plus, 0.5 nM biotinylated PCSK9, 960 nM AF cyclic peptide Reagent B; Ki calculated from IC50 and KD of AF peptide
Recorded Endpoint: pKi
Scale: pKi equals -log10([C]), with [C] in mol/L.

Molecule Smiles: COc1ccc(C[C@@H]2NC(=O)[C@H]([C@@H](C)O)NC(=O)[C@@H]3[C@@H]4CCN3C(=O)[C@@H]3Cc5cn(c6ccc(F)cc56)C/C=C/COc5cc(ccc5CNC(=O)CCC(=O)N[C@@H](C)C(=O)N[C@H](CN)C(=O)N[C@@H](Cc5cccc(c5)CNC(=O)CO4)C(=O)N3)CCNC(=O)[C@]3(C)CCCN3C2=O)cc1
Tgt: PCSK9 (Homo sapiens)
pKi: 10.02

Attention now shifts to the item below.
Item COc1ccc(C[C@@H]2NC(=O)[C@H]([C@@H](C)O)NC(=O)[C@@H]3[C@@H]4CCN3C(=O)[C@@H]3Cc5cn(c6ccccc56)CCCCCCN(Cc5ccc(cc5)CCNC(=O)[C@]5(C)CCCN5C2=O)C(=O)CCC(=O)N[C@@H](C)C(=O)N[C@H](CNC(=O)CCCCC[N+](C)(C)C)C(=O)N[C@@H](Cc2cccc(c2)CNC(=O)CO4)C(=O)N3)cc1 has what recorded pKi?
10.33

###

Reported values of Ki for individual entries
Tgt: PCSK9 (Homo sapiens)
Construct: Biotinylated PCSK9 was obtained commercially; purchased
Protocol Text: PCSK9 Alexa FRET Plus TR-FRET assay (displacement of AlexaFluor647 tagged cyclic peptide Reagent B)
Assay type: binding
Experimental Context: Ki Plus, 0.5 nM biotinylated PCSK9, 960 nM AF cyclic peptide Reagent B; Ki calculated from IC50 and KD of AF peptide

Compound: COc1ccc(C[C@@H]2NC(=O)[C@H]([C@@H](C)O)NC(=O)[C@@H]3[C@@H]4CCN3C(=O)[C@@H]3Cc5cn(c6ccc(F)cc56)Cc5cn(nn5)Cc5cc(ccc5CNC(=O)CCC(=O)N[C@@H](C)C(=O)N[C@H](CNC(=O)CCOCCOCC[N+](C)(C)C)C(=O)N[C@@H](Cc5cccc(c5)CNC(=O)CO4)C(=O)N3)CCNC(=O)[C@]3(C)CCCN3C2=O)cc1 [Ex-09]
Tgt: PCSK9 (Homo sapiens)
Ki: 0.0919 nM

Item COc1ccc(C[C@@H]2NC(=O)[C@H]([C@@H](C)O)NC(=O)[C@@H]3[C@@H]4CCN3C(=O)[C@@H]3Cc5cn(c6ccc(F)cc56)C/C=C/CCCN(Cc5ccc(cc5)CCNC(=O)[C@]5(C)CCCN5C2=O)C(=O)CCC(=O)N[C@@H](C)C(=O)N[C@H](CN)C(=O)N[C@@H](Cc2cccc(c2)CNC(=O)CO4)C(=O)N3)cc1 [Ex-51] has what recorded Ki?
< 0.00558 nM

###

Reported values of Ki for individual entries
Tgt: PCSK9 (Homo sapiens, UniProt Q8NBP7)
Construct: Biotinylated PCSK9 was obtained commercially; purchased
Protocol Text: PCSK9 Alexa FRET Plus TR-FRET assay (displacement of AlexaFluor647 tagged cyclic peptide Reagent B)
Type: binding
Experimental Context: Ki Plus, 0.5 nM biotinylated PCSK9, 960 nM AF cyclic peptide Reagent B; Ki calculated from IC50 and KD of AF peptide
Form entry: value (nM) — number only.

Compound: COc1ccc(C[C@@H]2NC(=O)[C@H]([C@@H](C)O)NC(=O)[C@@H]3[C@@H]4CCN3C(=O)[C@@H]3Cc5cn(c6ccc(F)cc56)C/C=C/CC[C@@H](NC(=O)CCC(=O)N[C@@H](C)C(=O)N[C@H](CNC(=O)CCCCC[N+](C)(C)C)C(=O)N[C@@H](Cc5cccc(c5)CNC(=O)CO4)C(=O)N3)c3ccc(cc3)CCNC(=O)[C@]3(C)CCCN3C2=O)cc1 [Ex-47]
Measured Value: 0.0147

Item COc1ccc(C[C@@H]2NC(=O)[C@H]([C@@H](C)O)NC(=O)[C@@H]3[C@@H]4CCN3C(=O)[C@@H]3Cc5cn(c6ccc(F)cc56)CCCCCCN(Cc5ccc(cc5)CCNC(=O)[C@]5(C)CCCN5C2=O)C(=O)CCCC(=O)N[C@H](CNC(=O)CCOCCOCC[N+](C)(C)C)C(=O)N[C@@H](Cc2cccc(c2)CNC(=O)CO4)C(=O)N3)cc1 [Ex-18] has what recorded Ki?
0.0336
